- targetOfAssay: PARP7 (Homo sapiens, UniProt Q7Z3E1)
- Construct: purchased BPS 80527
- Sequence (Q7Z3E1 whole entry): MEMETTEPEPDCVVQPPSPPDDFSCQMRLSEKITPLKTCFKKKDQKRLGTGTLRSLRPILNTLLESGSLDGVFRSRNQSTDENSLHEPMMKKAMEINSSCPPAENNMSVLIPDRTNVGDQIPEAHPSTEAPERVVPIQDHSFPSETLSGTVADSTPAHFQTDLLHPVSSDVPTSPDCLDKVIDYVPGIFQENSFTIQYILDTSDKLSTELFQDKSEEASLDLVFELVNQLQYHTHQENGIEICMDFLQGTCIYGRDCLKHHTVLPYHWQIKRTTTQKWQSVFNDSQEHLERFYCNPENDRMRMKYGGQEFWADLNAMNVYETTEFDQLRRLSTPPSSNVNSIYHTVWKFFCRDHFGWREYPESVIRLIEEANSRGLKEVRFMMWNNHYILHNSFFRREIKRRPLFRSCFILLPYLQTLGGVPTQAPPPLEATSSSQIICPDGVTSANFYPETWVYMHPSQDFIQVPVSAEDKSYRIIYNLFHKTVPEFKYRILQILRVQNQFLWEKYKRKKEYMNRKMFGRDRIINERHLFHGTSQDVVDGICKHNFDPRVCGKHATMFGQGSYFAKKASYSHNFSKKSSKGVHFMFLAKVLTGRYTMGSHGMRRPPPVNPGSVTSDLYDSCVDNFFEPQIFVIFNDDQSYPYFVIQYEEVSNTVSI
- assayDetails: PARP7 TR-FRET binding inhibition (displacement of probe RBN011147)
- cond: TR-FRET, Biotin-labeled probe RBN011147; read-out: PARP7 binding inhibition IC50
measuredMetric: IC50

Exam item: Quote IC50 reported for Cc1cnc(-c2cnc(C(=O)NCCCC(C)Nc3cc[nH]c(=O)c3C(F)(F)F)cn2)s1 (stereo not shown) please.
Marked response: 30 to 100 nM

Exam item: Quote IC50 reported for C[C@@H]1CCN(C(=O)[C@@H](CCCNC(=O)c2ccc(-c3ncc(C(F)(F)F)s3)cc2)Nc2cn[nH]c(=O)c2C(F)(F)F)C1 please.
Marked response: < 10 nM

Exam item: Quote IC50 reported for O=C(NCCCC(Nc1cn[nH]c(=O)c1C(F)(F)F)C(=O)N1CCOCC1)c1ccc(-c2ncc(C(F)(F)F)s2)cc1 (stereo not shown) please.
Marked response: < 10 nM

Exam item: Quote IC50 reported for CC(CCNC(=O)c1n[nH]c2cc(-c3ncc(C(F)(F)F)cn3)ccc12)Nc1cn[nH]c(=O)c1C(F)(F)F (stereo not shown) please.
Marked response: 30 to 100 nM

Exam item: Quote IC50 reported for CN(C(=O)[C@@H](CCCNC(=O)c1ccc(-c2ncc(C(F)(F)F)s2)cc1)Nc1cn[nH]c(=O)c1C(F)(F)F)C1CC1 please.
Marked response: < 10 nM

Exam item: Quote IC50 reported for CC(CCCNC(=O)c1ccc(-c2cc(C(F)(F)F)sn2)cc1F)Nc1cn[nH]c(=O)c1C(F)(F)F (stereo not shown) please.
Marked response: < 10 nM

Exam item: Quote IC50 reported for O=C(NCCC[C@@H](Nc1cn[nH]c(=O)c1C(F)(F)F)C(=O)N1CC[C@H](F)C1)c1ccc(-c2ncc(C(F)(F)F)s2)cc1 please.
Marked response: 10 to 30 nM

----------
Assign IC50 to each entry below.
- Tested on: NCI-H1373 cells
- assayDetails: Inhibition on NCI-H1373 cell proliferation (Cell-Titer-Glo)
- Assay type: cell-based
- cond: Homo sapiens, 144 h; NCI-H1373 cells, incubation for 6 days, Cell-Titer-Glo; read-out: NCI-H1373 cell proliferation inhibition IC50

Exam item: Quote IC50 reported for CC(CCCNC(=O)c1ccc(-c2nc(C(F)(F)F)cs2)cc1)Nc1cn[nH]c(=O)c1C(F)(F)F (centres unmarked) [Example 81] please.
Marked response: > 3000 nM

Exam item: Quote IC50 reported for CC(CCCNC(=O)c1ccc(-c2ncc(C(F)(F)F)s2)cc1F)Nc1cn[nH]c(=O)c1C(F)(F)F (centres unmarked) [Example 77] please.
Marked response: < 300 nM

Exam item: Quote IC50 reported for CC(CCCNC(=O)c1cc(-c2ncc(C(F)(F)F)cn2)on1)Nc1cn[nH]c(=O)c1C(F)(F)F (centres unmarked) [Example 39] please.
Marked response: 300 to 1000 nM

Exam item: Quote IC50 reported for CC(CCCn1ccc2cc(-c3ncc(C(F)(F)F)s3)cnc2c1=O)Nc1cn[nH]c(=O)c1C(F)(F)F (centres unmarked) [Example 253] please.
Marked response: 1000 to 3000 nM

Exam item: Quote IC50 reported for O=C(NCCCC(Nc1cn[nH]c(=O)c1C(F)(F)F)C(=O)N1CCCC1)c1ccc(-c2ncc(C(F)(F)F)cn2)cc1 (centres unmarked) [Example 84] please.
Marked response: 300 to 1000 nM

Exam item: Quote IC50 reported for C[C@H]1CCN1C(=O)[C@@H](CCCNC(=O)c1ccc(-c2ncc(C(F)(F)F)s2)cc1)Nc1cn[nH]c(=O)c1C(F)(F)F [Example 240] please.
Marked response: > 3000 nM

Exam item: Quote IC50 reported for CC(CCCNC(=O)c1ncc(-c2ncc(C(F)(F)F)s2)cc1F)Nc1cn[nH]c(=O)c1C(F)(F)F (centres unmarked) [Example 75] please.
Marked response: < 300 nM

Exam item: Quote IC50 reported for C[C@@H]1COCCN1C(=O)[C@@H](CCCNC(=O)c1ccc(-c2ncc(C(F)(F)F)s2)cc1)Nc1cn[nH]c(=O)c1C(F)(F)F [Example 238] please.
Marked response: 300 to 1000 nM

Exam item: Quote IC50 reported for CC(CCCNC(=O)c1cnc(-c2ncc(C(F)(F)F)cn2)cn1)Nc1cn[nH]c(=O)c1C(F)(F)F (centres unmarked) [Example 4] please.
Marked response: 300 to 1000 nM

Exam item: Quote IC50 reported for Cc1cc(-c2ccc(C(=O)NCCCC(C)Nc3cn[nH]c(=O)c3C(F)(F)F)cc2)ncc1C#N (centres unmarked) [Example 68] please.
Marked response: 300 to 1000 nM

Exam item: Quote IC50 reported for O=C(NCCC[C@@H](Nc1cn[nH]c(=O)c1C(F)(F)F)C(=O)Nc1cccnc1)c1ccc(-c2ncc(C(F)(F)F)s2)cc1 [Example 234] please.
Marked response: 300 to 1000 nM

Exam item: Quote IC50 reported for CCN(C)C(=O)[C@@H](CCCNC(=O)c1ccc(-c2ncc(C(F)(F)F)s2)cc1)Nc1cn[nH]c(=O)c1C(F)(F)F [Example 259] please.
Marked response: < 300 nM

Exam item: Quote IC50 reported for CC(CCCNC(=O)c1ccc(-c2ncc(C(F)F)s2)cn1)Nc1cn[nH]c(=O)c1C(F)(F)F (centres unmarked) [Example 23] please.
Marked response: 300 to 1000 nM

Exam item: Quote IC50 reported for CN(C(=O)[C@@H](CCCNC(=O)c1ccc(-c2ncc(C(F)(F)F)s2)cc1)Nc1cn[nH]c(=O)c1C(F)(F)F)C1CCC1 [Example 230] please.
Marked response: < 300 nM

----------
Assign pIC50 to each entry below.
- targetOfAssay: PARP7 (Homo sapiens, UniProt Q7Z3E1)
- Construct: purchased BPS 80527
- assayDetails: PARP7 in vitro enzyme activity inhibition (chemiluminescence assay, selectivity test)
- Format: biochemical
- cond: 6.25 nM of PARP7 solution, method of test example 1; read-out: PARP7 activity inhibition IC50
pIC50: −log10 of the molar value.

Exam item: Quote pIC50 reported for CC(CCCNC(=O)c1ccc(-c2ncc(C(F)(F)F)s2)cc1)Nc1cn[nH]c(=O)c1C(F)(F)F (stereo not shown) [Example 17] please.
Marked response: > 8.52

Exam item: Quote pIC50 reported for O=C(NCCc1n[nH]c(=O)c(C(F)(F)F)c1N1CC2(CCC2)C1)c1cnc(-c2ncc(C(F)(F)F)cn2)cn1 [Example 166] please.
Marked response: 8.00 to 8.52

Exam item: Quote pIC50 reported for O=C(NCCCC(Nc1cn[nH]c(=O)c1C(F)(F)F)C(=O)N1CC2(CCC2)C1)c1cnc(-c2ncc(C(F)(F)F)cn2)cn1 (stereo not shown) [Example 87] please.
Marked response: > 8.52

Exam item: Quote pIC50 reported for O=C(NCCC[C@@H](Nc1cn[nH]c(=O)c1C(F)(F)F)C(=O)N1CC(Cl)C1)c1ccc(-c2ncc(C(F)(F)F)s2)cc1 [Example 224] please.
Marked response: > 8.52

----------
- System: NCI-H1373 cells
- assayDetails: Inhibition on NCI-H1373 cell proliferation (Cell-Titer-Glo)
- Assay type: cell-based
- cond: Homo sapiens, 144 h; NCI-H1373 cells, incubation for 6 days, Cell-Titer-Glo; read-out: NCI-H1373 cell proliferation inhibition IC50
pIC50: −log10 of the molar value.
Assign pIC50 to each entry below.

Exam item: Quote pIC50 reported for O=C(NCCc1n[nH]c(=O)c(C(F)(F)F)c1N1CC2(CCC2)C1)c1cnc(-c2ncc(C(F)(F)F)cn2)cn1 please.
Marked response: < 5.52

Exam item: Quote pIC50 reported for CC(CCCNC(=O)c1ccc(-c2ncc(C(F)F)s2)cn1)Nc1cn[nH]c(=O)c1C#N (stereo not shown) please.
Marked response: < 5.52

Exam item: Quote pIC50 reported for Cc1c(-c2cnc(C(F)(F)F)s2)ncn(CCCC(C)Nc2cn[nH]c(=O)c2C(F)(F)F)c1=O (stereo not shown) please.
Marked response: < 5.52

Exam item: Quote pIC50 reported for CC(CCCNC(=O)c1ncc(-c2cscn2)cc1F)Nc1cn[nH]c(=O)c1C(F)(F)F (stereo not shown) please.
Marked response: < 5.52

Exam item: Quote pIC50 reported for CC(CCCNC(=O)c1cnc(-c2ncc(C(F)(F)F)cn2)cn1)Oc1cn[nH]c(=O)c1C(F)(F)F (stereo not shown) please.
Marked response: > 6.52

Exam item: Quote pIC50 reported for CNC(=O)[C@@H](CCCNC(=O)c1ccc(-c2ncc(C(F)(F)F)s2)cc1)Nc1cn[nH]c(=O)c1C(F)(F)F please.
Marked response: > 6.52

Exam item: Quote pIC50 reported for COc1cnc(-c2ccc(C(=O)NCCCC(C)Nc3cn[nH]c(=O)c3C(F)(F)F)c(F)c2)s1 (stereo not shown) please.
Marked response: 5.52 to 6.00

Exam item: Quote pIC50 reported for COc1cnc(-c2ccc(C(=O)NCCCC(C)Nc3cn[nH]c(=O)c3C(F)(F)F)cc2)s1 (stereo not shown) please.
Marked response: 5.52 to 6.00

Exam item: Quote pIC50 reported for CC(CCCNC(=O)c1ccc(-c2nnc(C(F)(F)F)s2)cc1)Nc1cn[nH]c(=O)c1C(F)(F)F (stereo not shown) please.
Marked response: < 5.52

Exam item: Quote pIC50 reported for CC(CCCNC(=O)c1ccc(-c2noc(C3CC3)n2)cc1)Nc1cn[nH]c(=O)c1C(F)(F)F (stereo not shown) please.
Marked response: 5.52 to 6.00

Exam item: Quote pIC50 reported for CC(CCCNC(=O)c1cnc(-c2ncc(C(F)F)s2)cn1)Nc1cc[nH]c(=O)c1C(F)(F)F (stereo not shown) please.
Marked response: < 5.52

Exam item: Quote pIC50 reported for Cc1c(CCC(=O)Nc2ccc(-c3ncc(C(F)(F)F)cn3)cc2)c[nH]c(=O)c1C(F)(F)F please.
Marked response: 5.52 to 6.00

Exam item: Quote pIC50 reported for O=C(NCCC[C@@H](Nc1cn[nH]c(=O)c1C(F)(F)F)C(=O)N1CC(Cl)C1)c1ccc(-c2ncc(C(F)(F)F)s2)cc1 please.
Marked response: > 6.52

Exam item: Quote pIC50 reported for CC(CCCNC(=O)c1ccc(-c2ncc(C(F)(F)F)cn2)cc1F)Nc1cn[nH]c(=O)c1C(F)(F)F (stereo not shown) please.
Marked response: 6.00 to 6.52

Exam item: Quote pIC50 reported for CC(CCCNC(=O)c1ccc(-c2ncc(N3CCOCC3)s2)cc1)Nc1cn[nH]c(=O)c1C(F)(F)F (stereo not shown) please.
Marked response: < 5.52

Exam item: Quote pIC50 reported for O=C(NCCC[C@@H](Nc1cn[nH]c(=O)c1C(F)(F)F)C(=O)N1CCSCC1)c1ccc(-c2ncc(C(F)(F)F)s2)cc1 please.
Marked response: 6.00 to 6.52

Exam item: Quote pIC50 reported for CC(CCCNC(=O)c1ccc(-n2cccn2)nc1)Nc1cn[nH]c(=O)c1C(F)(F)F (stereo not shown) please.
Marked response: < 5.52

Exam item: Quote pIC50 reported for CC(CCCNC(=O)c1ncc(-n2cc(C(F)(F)F)cn2)cc1F)Nc1cn[nH]c(=O)c1C(F)(F)F (stereo not shown) please.
Marked response: 6.00 to 6.52

Exam item: Quote pIC50 reported for CC(CCCNC(=O)c1ccc(-c2cc(C(F)(F)F)nn2C)cc1)Nc1cn[nH]c(=O)c1C(F)(F)F (stereo not shown) please.
Marked response: < 5.52

Exam item: Quote pIC50 reported for CC(CCCNC(=O)c1ccc(-c2ncc(C3CC3)s2)cc1)Nc1cn[nH]c(=O)c1C(F)(F)F (stereo not shown) please.
Marked response: 6.00 to 6.52

Exam item: Quote pIC50 reported for O=C(NCCCC(Nc1cn[nH]c(=O)c1C(F)(F)F)C(=O)NC1CCCOC1)c1ccc(-c2ncc(C(F)(F)F)s2)cc1 (stereo not shown) please.
Marked response: 6.00 to 6.52

Exam item: Quote pIC50 reported for N#C[C@@H]1CCCN(C(=O)[C@@H](CCCNC(=O)c2ccc(-c3ncc(C(F)(F)F)s3)cc2)Nc2cn[nH]c(=O)c2C(F)(F)F)C1 please.
Marked response: 5.52 to 6.00

Exam item: Quote pIC50 reported for O=C(NCCC[C@@H](Nc1cn[nH]c(=O)c1C(F)(F)F)C(=O)Nc1ccccn1)c1ccc(-c2ncc(C(F)(F)F)s2)cc1 please.
Marked response: < 5.52

Exam item: Quote pIC50 reported for CC1(NC(=O)[C@@H](CCCNC(=O)c2ccc(-c3ncc(C(F)(F)F)s3)cc2)Nc2cn[nH]c(=O)c2C(F)(F)F)CCOCC1 please.
Marked response: > 6.52

Exam item: Quote pIC50 reported for CC1(C)CN(C(=O)C(CCCNC(=O)c2cnc(-c3ncc(C(F)(F)F)cn3)cn2)Nc2cn[nH]c(=O)c2C(F)(F)F)C1 (stereo not shown) please.
Marked response: < 5.52

Exam item: Quote pIC50 reported for Cc1c(CCC(=O)Nc2ccc(-c3ncc(C(F)(F)F)cn3)cc2F)c[nH]c(=O)c1C(F)(F)F please.
Marked response: < 5.52

Exam item: Quote pIC50 reported for CC(CCCNC(=O)c1ccc(-n2cc(C(F)(F)F)cn2)cc1F)Nc1cn[nH]c(=O)c1C(F)(F)F (stereo not shown) please.
Marked response: > 6.52

Exam item: Quote pIC50 reported for CC(CCCNC(=O)c1ccc(-c2ncc(CC3CCCC3)s2)cc1)Nc1cn[nH]c(=O)c1C(F)(F)F (stereo not shown) please.
Marked response: > 6.52
